molecular target: MAP2K1 (human); test: radiometric filter-binding kinase assay, Kinase HotSpot; conditions: compound 0.5 µM; ATP 10 µM
readoutType: residual activity (%)
State the answer as a number, implicitly in %.

The cases that follow already have their residual activity on record.
- compound: "O=C(O)/C=C/c1cc(Br)c(Br)c(Br)c1Br"
  observedResult: 95.8
- compound: "CCn1cnc2c(Nc3cccc(Cl)c3)nc(N[C@@H]3CCCC[C@@H]3N)nc21"
  observedResult: 92.2
- compound: "CN(C)C[C@H]1CCn2c(c(C3=C(c4cn(C)c5ccccc45)C(=O)NC3=O)c3ccccc32)C1"
  observedResult: 98.8
- compound: "Cc1nc2cc3nc(-c4cccs4)cnc3cc2n1C"
  observedResult: 89.7
- compound: "COc1cc2ncnc(N3CCN(C(=O)Nc4ccc(Oc5ccccc5)cc4)CC3)c2cc1OC"
  observedResult: 91.2

Prompt: Fill blank: measured residual activity of the compound CN([C@@H](Cc1ccc(OS(=O)(=O)c2cccc3cnccc23)cc1)C(=O)N1CCN(c2ccccc2)CC1)S(=O)(=O)c1cccc2cnccc12 is ____.
Response: 75.3

Prompt: Fill blank: measured residual activity of the compound Nc1nnc2[nH]c3ccccc3nc1-2 is ____.
Response: 98.8

Prompt: Fill blank: measured residual activity of the compound Oc1ccc(Nc2nc(-c3ccc(Cl)cc3)cs2)cc1 is ____.
Response: 90.7

Prompt: Fill blank: measured residual activity of the compound O=C1Cc2c([nH]c3ccc(Br)cc23)-c2ccccc2N1 is ____.
Response: 84.3

Prompt: Fill blank: measured residual activity of the compound Cn1cnc2cc3c(Nc4cccc(Br)c4)ncnc3cc21 is ____.
Response: 113

Prompt: Fill blank: measured residual activity of the compound Cn1sc(=O)n(Cc2ccccc2)c1=O is ____.
Response: 83.8
